- system_under_test: TEAD4 (Homo sapiens (Human), UniProt Q15561)
- Sequence (Q15561 whole entry, species assumed): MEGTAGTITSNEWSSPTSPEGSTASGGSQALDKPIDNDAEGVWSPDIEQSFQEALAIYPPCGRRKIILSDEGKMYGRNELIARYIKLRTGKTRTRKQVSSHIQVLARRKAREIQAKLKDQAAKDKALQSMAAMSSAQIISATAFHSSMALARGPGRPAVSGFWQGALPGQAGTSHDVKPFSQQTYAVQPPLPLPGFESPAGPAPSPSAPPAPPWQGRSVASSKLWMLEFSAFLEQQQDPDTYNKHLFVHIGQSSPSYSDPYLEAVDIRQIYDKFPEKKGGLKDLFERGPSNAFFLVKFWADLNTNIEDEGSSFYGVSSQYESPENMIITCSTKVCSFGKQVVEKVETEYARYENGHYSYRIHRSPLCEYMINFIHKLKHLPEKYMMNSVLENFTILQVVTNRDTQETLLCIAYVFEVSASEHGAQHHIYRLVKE
- method_description: TR-FRET lipid pocket probe competition assay (Lipid HTRF), TEAD4;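 note: His-tagged TEAD4 with biotinylated lipid-pocket probe, read by Europium anti-His and XL665 streptavidin, where probe displacement lowers the TR-FRET signal, IC50 from a four-parameter fit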
- Type: binding
- condition_info: 4 hours pre-incubation; read-out: Lipid HTRF TEAD4 IC50
pIC50: −log10 of the molar value.
experimental_readout: pIC50

compound: C=CC(=O)NCc1nn(-c2ccc(OC(F)F)cc2)c2nccc(CO)c12
pIC50: 6.36
--
compound: C=CC(=O)NCc1nn(-c2ccc(OC(F)(F)F)cc2)c2nccc(N3CCOCC3)c12
pIC50: 7.19
--
compound: C=C(F)C(=O)N1CC(c2nn(-c3ccc(OC(F)(F)F)cc3)c3nccc(-c4cnn(C5COC5)c4)c23)C1
pIC50: 7.35

A. C=C(F)C(=O)N1CC(c2nn(-c3ccc(OC(F)(F)F)cc3)c3nccc(-c4cn[nH]c4)c23)C1
B. C=CC(=O)NCc1nn(-c2ccc(OC(F)(F)F)cc2)c2nccc(NC(=O)CO)c12
Compare pIC50: is it lower for A or for B ? Which one? Tell me its label.
B
